Conditions: in water, 293.15 K
outcome measure: solubility (mole fraction)

{"smiles code": "C#C[C@]1(O)CC[C@H]2[C@@H]3CCC4=CC(=O)CC[C@@H]4[C@H]3C(=C)C[C@@]21CC", "meas value": "2.56e-05"}

====

Details: in water, 323.15 K

{"smiles code": "C#C[C@]1(O)CC[C@H]2[C@@H]3CCC4=CC(=O)CC[C@@H]4[C@H]3C(=C)C[C@@]21CC", "solubility (mole fraction)": "6.78e-05"}

====

Conditions: in water, 308.15 K

{"smiles code": "C#C[C@]1(O)CC[C@H]2[C@@H]3CCC4=CC(=O)CC[C@@H]4[C@H]3C(=C)C[C@@]21CC", "solubility (mole fraction)": "4.3e-05"}
